- Tested on: HL-60
- test-description: Cytotoxicity against human HL60 cells after 72 hrs by MTT assay
- Assay type: functional, cell-based
- test-conditions: HL-60, 72 h
Record form. Attribute: IC50. Fill in for each entry.

Example results:
1) CCCC1=C(OC2(CCC)C(=O)C(=O)C3=C(CCCC3)C2=O)C(=O)C2=C(CCCC2)C1=O (configuration not stated) = > 11.4 µM
2) CC(C)CC1=C(OC2(CC(C)C)C(=O)C(=O)c3ccccc3C2=O)C(=O)c2ccccc2C1=O (configuration not stated) = > 10.9 µM
3) CC(C)=CCC1=C(OC2(CC=C(C)C)C(=O)C(=O)c3ccccc3C2=O)C(=O)c2ccccc2C1=O (configuration not stated) = > 10.4 µM
4) CC(C)CC1=C(O)C(=O)C2=C(CCCC2)C1=O = > 21.4 µM
5) CC1(C)OC2=C(C(=O)C(=O)c3ccccc32)[C@H](n2cc(-c3ccc(Br)cc3)nn2)[C@H]1Br = 1.67 µM
6) CCCC1=C(OC2(CCC)C(=O)C(=O)c3ccccc3C2=O)C(=O)c2ccccc2C1=O (configuration not stated) = > 11.6 µM
7) O=C1c2ccccc2C(=O)c2c1ccc1nc(-c3ccc(F)cc3)[nH]c21 = > 14.6 µM
8) COc1ccc(-c2cn([C@H]3C4=C(OC(C)(C)[C@@H]3Br)c3ccccc3C(=O)C4=O)nn2)cc1 = 1.88 µM
9) CC(C)CC1=C(OC2(CC(C)C)C(=O)C(=O)C3=C(CCCC3)C2=O)C(=O)C2=C(CCCC2)C1=O (configuration not stated) = > 10.7 µM
10) CC1(C)OC2=C(C(=O)C(=O)c3ccccc32)[C@H](n2cc(-c3ccccc3)nn2)[C@H]1Br = 1.01 µM

Okay, here is my list. What is IC50 for each of these?
1. C=CCC1=C(OC2(CC=C)C(=O)C(=O)c3ccccc3C2=O)C(=O)c2ccccc2C1=O (configuration not stated)
2. CC1=C(OC2(C)C(=O)c3ccccc3C2=O)C(=O)c2ccccc2C1=O

> 11.7 µM
> 14.4 µM
